- System: MtbCoaBC (Mycobacterium tuberculosis)
- Test method notes: biochemical
- Type: biochemical
- Setup conditions: read-out: IC50 EnzChek MtbCoaBC
Assay metric: IC50 (nM)
Numbers only, in nM.

Some compounds with recorded IC50:
>  <Structure as smiles>
O=c1cc(-c2ccc(O)c(O)c2)oc2cc(O)c(O)cc12

>  <System>
MtbCoaBC (Mycobacterium tuberculosis)

>  <Assay metric>
IC50

>  <Reading>
80

$$$$
>  <Structure as smiles>
O=c1cc(-c2ccc(O)cc2)oc2cc(O)c(O)c(O)c12

>  <System>
MtbCoaBC (Mycobacterium tuberculosis)

>  <Assay metric>
IC50

>  <Reading>
410

$$$$
>  <Structure as smiles>
Oc1ccc(Cc2ccc(O)c(O)c2O)cc1

>  <System>
MtbCoaBC (Mycobacterium tuberculosis)

>  <Assay metric>
IC50

>  <Reading>
4600

$$$$

// batch mode: one IC50 value per listed entry
1. O=c1cc(-c2ccc(O)cc2)oc2c(O)c(O)ccc12
2. O=C(c1ccc(O)cc1)c1ccc(O)c(O)c1O

[3000, 280]

###

- System: UniProtKB P9WNZ1
- Test method notes: CMP quantification assay (UPLC), second half of CoaB reaction, variable L-cysteine
- Assay type: biochemical
- Setup conditions: variable substrate L-cysteine
Assay metric: Ki (µM)
Give bare numbers, in µM.

State measured Ki of the compound CC(=O)SCCNC(=O)CCNC(=O)[C@H](O)C(C)(C)COP(=O)(O)OP(=O)(O)OC[C@H]1O[C@@H](n2cnc3c(N)ncnc32)[C@H](O)[C@@H]1OP(=O)(O)O with UniProtKB P9WNZ1.
62.1

###

Kindly state pIC50 for each of the entries shown.
- System: MtbCoaBC (Mycobacterium tuberculosis, UniProt P9WNZ1)
- Sequence (P9WNZ1 whole entry): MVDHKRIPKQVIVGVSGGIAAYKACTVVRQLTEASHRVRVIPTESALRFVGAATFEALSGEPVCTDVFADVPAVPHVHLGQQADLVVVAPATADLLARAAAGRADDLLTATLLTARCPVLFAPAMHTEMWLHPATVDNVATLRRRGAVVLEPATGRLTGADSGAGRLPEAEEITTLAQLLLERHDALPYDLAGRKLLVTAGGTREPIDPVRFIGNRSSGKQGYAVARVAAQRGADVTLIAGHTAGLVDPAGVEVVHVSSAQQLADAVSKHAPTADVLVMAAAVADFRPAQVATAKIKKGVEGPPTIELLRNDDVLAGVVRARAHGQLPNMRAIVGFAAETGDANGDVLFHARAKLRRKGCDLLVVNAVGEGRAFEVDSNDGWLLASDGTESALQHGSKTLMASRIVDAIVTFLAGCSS
- Test method notes: High-throughput end-point pyrophosphate quantification assay (Biomol Green)
- Type: biochemical
- Setup conditions: MtbCoaB activity; end-point, 2 µM CTP, 40 µM L-cysteine, 30 µM PPA; read-out: IC50 biomol green assay
One number for each entry, as −log10 of the molar value.

Examples with their reported pIC50 follow.
>  <Structure as smiles>
O=c1cc(-c2ccc(O)cc2)oc2c(O)c(O)ccc12

>  <Reading>
5.66

$$$$
>  <Structure as smiles>
Oc1ccc(Cc2ccc(O)c(O)c2O)cc1

>  <Reading>
5.33

$$$$
>  <Structure as smiles>
O=C(c1ccc(O)cc1)c1ccc(O)c(O)c1O

>  <Reading>
6.52

$$$$
>  <Structure as smiles>
O=C(c1ccccc1)c1ccc(O)c(O)c1O

>  <Reading>
5.05

$$$$

Now look at this one.
Return reported pIC50 for target or system MtbCoaBC (Mycobacterium tuberculosis, UniProt P9WNZ1), item O=c1cc(-c2ccc(O)c(O)c2)oc2cc(O)c(O)cc12 .
7.00
